# System: Bacillus subtilis
# procedure-text: cleaved RNA product abundance (RNA/gDNA barcode ratio) relative to median wild-type variant (ratio to wild type); higher = more accumulation of the downstream cleavage product
# recorded-conditions: experiment (reporter, strain, medium): exp 6: tetM reporter, strain 168; cleavage site: cggR-gapA (positions -7 to +36 mutated)
// map cleaved RNA product abundance to label using bottom range: < 0.2; center range: ≥ 0.2 and < 0.7; top range: ≥ 0.7

sequence-data: ACAGACGAAGGAGCCGCAAAGAAGTTATTAAGGGATGAATAATCCCTCCATATAAATATCTCTCACTTATTTAAA
class-name: center range

sequence-data: ACAGACGAAGGAGCCGCAAAGAAGTTATTAAGGCATGAATAATCCCTCAATATAAATATCTCTCACTTATTTAAA
class-name: bottom range

sequence-data: ACAGACGAAGGAGCCGCAAAGAAGTTATTAAGGGATGAGTAATCCCTCAATATAAATATCTCTCACTTATTTAAA
class-name: top range

sequence-data: ACAGACGAAGGAGCCGCAAAGAAGTTATTAAGGGATGAATCATCCCTCAATATAAATATCTCTCACTTATTTAAA
class-name: top range

sequence-data: ACAGACGAAGGAGCCGCAAAGAAGATATTAAGGGATGAATAATCCCTCAATATAAATATCTCTCACTTATTTAAA
class-name: center range

sequence-data: ACAGACGAAGGAGCCGCAAAGAAGTTATTCAGGGATGAATAATCCCTCAATATAAATATCTCTCACTTATTTAAA
class-name: center range

sequence-data: ACAGACGAAGGAGCCGCAAAGAAGTTAATAAGGGATGAATAATCCCTCAATATAAATATCTCTCACTTATTTAAA
class-name: center range

sequence-data: ACAGACGAAGGAGCCGCAAAGAAGTTATTAAAGGATGAATAATCCCTCAATATACATATCTCTCACTTATTTAAA
class-name: bottom range

sequence-data: ACAGACGAAGGAGCCGCAAAGTAGTTATTAAGGGATGAATAATCCCTTAATATAAATATCTCTCACTTATTTAAA
class-name: top range

sequence-data: ACAGACGAAGGAGCCGCAAAGAAGTTATTAAAGGATGAATAATACCTCAATATAAATATCTCTCACTTATTTAAA
class-name: bottom range

sequence-data: ACAGACGAAGGAGCCGCAAAGAAGTTATTAAGGGATAAATAATCCCTCAATATAAATATCTCTCACTTATTTAAA
class-name: top range

sequence-data: ACAGACGAAGGAGCCGCAAAGAAGTTATTAAGGGATGAATAATCCCTCAACATAAATATCTCTCACTTATTTAAA
class-name: bottom range

sequence-data: ACAGACGAAGGAGCCGCAAATAAGATATTAAGGGATGAATAATCCCTCAATATAAATATCTCTCACTTATTTAAA
class-name: top range

---

# Test system: Bacillus subtilis
# procedure-text: cleaved RNA product abundance (RNA/gDNA barcode ratio) relative to median wild-type variant (ratio to wild type); higher = more accumulation of the downstream cleavage product
# recorded-conditions: experiment (reporter, strain, medium): exp 4a: truncated aprE reporter, strain BJT201 with 2% xylose (RNase J1 expressed); cleavage site: cggR-gapA (positions -7 to +36 mutated)
Threshold rule: cleaved RNA product abundance greater than or equal to 0.3 is 1.0; below that, 0.0.

sequence-data: ACAGACGAAGGAGCCGCAAAAAAGTTATTAAGGGATGAATAATCCCTAAATATAAATATCTCTCACTTATTTAAA
class-name: 1.0
//
sequence-data: ACAGACGAAGGAGCCGCAAAGAAGTTATTAAGGGATAAACAATCCCTCAATATAAATATCTCTCACTTATTTAAA
class-name: 1.0
//
sequence-data: ACAGACGAAGGAGCCGCAAAGAAGTTATTAAGGGATGAATAATACCTCAAGATAAATATCTCTCACTTATTTAAA
class-name: 0.0
//
sequence-data: ACAGACGAAGGAGCCGCAAATAAGTTATTAAGGGATGAATAATCCCTCTATATAAATATCTCTCACTTATTTAAA
class-name: 1.0
//
sequence-data: ACAGACGAAGGAGCCGCAAAGAAGTTATTAAGGGATGAATAATCGCACAATATAAATATCTCTCACTTATTTAAA
class-name: 0.0
//
sequence-data: ACAGACGAAGGAGCCGCAAAGAAGTTATTAAGGGATGAGTAAACCCTCAATATAAATATCTCTCACTTATTTAAA
class-name: 1.0
//
sequence-data: ACAGACGAAGGAGCCGCAGAAAAGTTATTAAGGGATGAATAATCCCTCAATATAAATATCTCTCACTTATTTAAA
class-name: 1.0
